experiment: RP, Thermo Scientific Acclaim RSLC 120 C18, 100 × 2.1 mm, 2.2 µm, 30 °C, 0.2 mL/min, estimated dead time 1.1 min; A: 90% water + 10% methanol + 0.01% formic acid + 5 mM ammonium formate, pH 3.61; B: methanol + 0.01% formic acid + 5 mM ammonium formate, pH 3.61; gradient (min/%B) 0/1 1/1 2/39 13/99.9 15/99.9 15.1/1 20.1/1; details: stereoisomer not certain
The entries below are paired with their reported LC retention time.

compound	LC retention time (min)
CCCCCn1cc(C(=O)c2ccc(C)c3ccccc23)c2ccccc21	12.9
COC(=O)CCc1ccc(OCC(O)CNC(C)C)cc1 (stereo not given)	5.18
CNC(=O)ON=CC(C)(C)S(C)=O (stereo not given) [Aldicarb-sulfoxide]	3.5
CCc1cnc(C2=NC(C)(C(C)C)C(=O)N2)c(C(=O)O)c1 (stereo not given)	5.6
C=CC1(C)OC(=O)N(c2cc(Cl)cc(Cl)c2)C1=O (stereo not given)	10.6

All values here come from the RepoRT retention time repository (doi:10.1021/acs.analchem.2c02893).
